Values from PubChem BioAssay

Reported values of composite z-score for individual entries
Tested on: PRMT1 (protein arginine N-methyltransferase 1)
Assay: PRMT1 binders on small-molecule microarrays, primary screen, biochemical, small-molecule microarray, 635 nm fluorescence (AID 1088);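 also: binding of Prmt1 protein to compounds spotted on small-molecule microarray slides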
Details: small-molecule microarray binding, higher = more signal

[
  {
    "compound": "C=CCC(OC(C)=O)[C@@H]1[C@@H](N(Cc2cc3ccccc3o2)C(=O)Cc2ccc(OC)cc2)c2cc(OCCCO)ccc2N1C(=O)Cc1ccc2ccccc2c1 (stereo not given in full)",
    "testedSystem": "PRMT1 (protein arginine N-methyltransferase 1)",
    "composite z-score": -0.328
  },
  {
    "compound": "CCCC[C@@H](O)C1=C(COC)Cn2c(=O)n(-c3ccccc3)c(=O)n2[C@H]1CO",
    "testedSystem": "PRMT1 (protein arginine N-methyltransferase 1)",
    "composite z-score": -0.0379
  },
  {
    "compound": "C[C@H]1NC(=O)C([C@@H](C)OCc2ccccc2)NC(=O)[C@@]23C(=O)N[C@@H](Cc4ccccc4)C2[C@H](C)[C@@]2(C)O[C@H]2C3/C=C/C/C=C\\CNC1=O (stereo not given in full)",
    "testedSystem": "PRMT1 (protein arginine N-methyltransferase 1)",
    "composite z-score": -0.242
  },
  {
    "compound": "O=c1cccc(-c2ccccc2C(F)(F)F)o1",
    "testedSystem": "PRMT1 (protein arginine N-methyltransferase 1)",
    "composite z-score": -0.205
  },
  {
    "compound": "O=C(NCC(F)(F)F)[C@@H]1c2ccccc2C(=O)N(CC23CC4CC(CC(C4)C2)C3)[C@H]1c1ccc(CO)cc1",
    "testedSystem": "PRMT1 (protein arginine N-methyltransferase 1)",
    "composite z-score": 1.54
  },
  {
    "compound": "C=CCC(OC(C)=O)[C@@H]1[C@@H](N(Cc2cc3ccccc3o2)C(=O)c2cccc3ccccc23)c2cc(OCCCO)ccc2N1C(=O)c1ccc2ccccc2c1 (stereo not given in full)",
    "testedSystem": "PRMT1 (protein arginine N-methyltransferase 1)",
    "composite z-score": -0.305
  },
  {
    "compound": "COCC1=C([C@H](O)CCc2ccccc2)[C@H](CO)n2c(=O)n(-c3ccccc3)c(=O)n2C1",
    "testedSystem": "PRMT1 (protein arginine N-methyltransferase 1)",
    "composite z-score": -0.872
  },
  {
    "compound": "[N-]=[N+]=NCc1ccccc1C[C@]1(C(=O)N2CCOCC2)N=C(c2ccc(OCCCO)cc2)O[C@H]1c1ccccc1CN=[N+]=[N-]",
    "testedSystem": "PRMT1 (protein arginine N-methyltransferase 1)",
    "composite z-score": 1.56
  },
  {
    "compound": "C=CCNC(=O)[C@H]1[C@@H]2C(=O)O[C@@H](c3ccccc3)[C@@H](c3ccccc3)N2[C@@H](c2ccc(O)cc2)[C@]12C(=O)Nc1ccc(C#CC3=CCCCC3)cc12",
    "testedSystem": "PRMT1 (protein arginine N-methyltransferase 1)",
    "composite z-score": 1.42
  },
  {
    "compound": "CN(C)CCCNC(=O)[C@@]1(Cc2ccccc2I)c2ccccc2C(=O)N(Cc2ccccc2)[C@H]1c1ccc(CO)cc1",
    "testedSystem": "PRMT1 (protein arginine N-methyltransferase 1)",
    "composite z-score": 1.53
  },
  {
    "compound": "CC(C)=CCN(C(=O)C#Cc1ccccc1)[C@H](CO)c1ccccc1",
    "testedSystem": "PRMT1 (protein arginine N-methyltransferase 1)",
    "composite z-score": 0.95
  },
  {
    "compound": "C/C=C/CN(C(=O)C#Cc1ccccc1)[C@H](CO[Si](C)(C)C(C)(C)C)c1ccccc1",
    "testedSystem": "PRMT1 (protein arginine N-methyltransferase 1)",
    "composite z-score": 0.437
  },
  {
    "compound": "COC(=O)[C@@]1(Cc2ccc(F)cc2)[C@H]2c3cc(C(=O)N(C)C)n(CCO)c3C[C@H]2CN1C(=O)c1ccccc1",
    "testedSystem": "PRMT1 (protein arginine N-methyltransferase 1)",
    "composite z-score": 0.0788
  },
  {
    "compound": "CC(C)CNC(=O)[C@@H]1c2ccccc2C(=O)N(C2Cc3ccccc3C2)[C@H]1c1ccc(CO)cc1",
    "testedSystem": "PRMT1 (protein arginine N-methyltransferase 1)",
    "composite z-score": 0.962
  },
  {
    "compound": "CCOC(=O)C[C@H]1[C@H](OC(=O)Cc2ccc3c(c2)OCO3)[C@@H](NC(=O)c2ccccc2)c2cc(OCCCO)ccc2N1C(=O)Cc1ccc(OC)cc1",
    "testedSystem": "PRMT1 (protein arginine N-methyltransferase 1)",
    "composite z-score": 0.498
  }
]

###

Assay: cell viability in Huh7 cells, primary screen, cytotoxicity control for HCV replication inhibitor project, CellTiter-Glo luminescence, basal, 48 h (AID 1143);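 also: Huh7 hepatoma cells carrying a hepatitis C replication reporter with no stimulus; test concentration not given here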
Settings: Huh7 HCV replicon, higher = more signal, called active from +8 up or from −8 down
Active and inactive are the calls of the source.

[
  {
    "compound": "C=CC[C@]1(C(=O)OC)N=C(c2ccc(OCCCO)cc2)O[C@H]1c1ccccc1N=[N+]=[N-]",
    "z-score": "-3.62 (inactive)"
  },
  {
    "compound": "CCCC=C(CCC)[C@@H](NC(=O)c1ccccc1)c1ccc(C(=O)OC)cc1",
    "z-score": "-4.41 (inactive)"
  },
  {
    "compound": "C=CC[C@@]1(C(=O)O)N=C(c2ccc(OCCCO)cc2)O[C@@H]1c1ccccc1CN=[N+]=[N-]",
    "z-score": "-1.9 (inactive)"
  },
  {
    "compound": "CN(C)CCCNC(=O)[C@@H]1c2ccccc2C(=O)N(C2Cc3ccccc3C2)[C@H]1c1ccc(CO)cc1",
    "z-score": "-0.701 (inactive)"
  },
  {
    "compound": "COC(=O)C(CC#Cc1ccc2c(c1)[C@]1(C(=O)N2)[C@H](c2ccc(O)cc2)N2[C@H](c3ccccc3)[C@H](c3ccccc3)OC(=O)[C@H]2[C@@H]1C(=O)N1CCc2cc(OC)c(OC)cc2C1)C(=O)OC",
    "z-score": "-0.26 (inactive)"
  },
  {
    "compound": "COc1cccc(OC)c1C(=O)O[C@H]1[C@@H]2OC(=O)[C@H](Cc3cccc(Br)c3)C/C=C/C[C@@H](Cc3cccc(Br)c3)C(=O)O[C@H]2[C@@H](OC)O[C@@H]1CO",
    "z-score": "-1.74 (inactive)"
  },
  {
    "compound": "COc1cc2c(cc1O)C(c1ccc(CN3CCCC3)cc1)N(Cc1cccc(OC(F)(F)F)c1)CC2 (centres undefined)",
    "z-score": "-5.42 (inactive)"
  },
  {
    "compound": "CCCC[C@H]1OB(O)C[C@H]2C1=C(COC)C[C@H]1C(=O)C=CC(=O)[C@H]12",
    "z-score": "-1.06 (inactive)"
  },
  {
    "compound": "CN(C)CCCC[C@@H]1NC(=O)[C@H]2C[C@@H](C(=O)NCc3ccc(F)cc3)[C@@H](c3ccc(O)cc3)N2C1=O",
    "z-score": "0.0491 (inactive)"
  },
  {
    "compound": "COc1ccc(C(O)C2C=CC3C(=O)N(C)C(=O)C3N2Nc2ccc([N+](=O)[O-])cc2[N+](=O)[O-])cc1OCc1ccccc1 (centres undefined)",
    "z-score": "0.351 (inactive)"
  },
  {
    "compound": "COC(=O)[C@@]1(Cc2ccc(F)cc2)[C@H]2c3cc(C(=O)N(C)C)n(CCn4cc([N+](=O)[O-])nc4C)c3C[C@H]2CN1C(=O)c1ccccc1",
    "z-score": "0.278 (inactive)"
  },
  {
    "compound": "C=CC[C@@]12N=C(c3ccc(OCCCO)cc3)O[C@@H]1c1ccccc1N(Cc1ccccc1)C2=O",
    "z-score": "-4.31 (inactive)"
  },
  {
    "compound": "COCCOC(=O)N1C(=O)[C@@]2(c3cc(C#CCCO)ccc31)[C@H](c1ccccc1OCCO)N1[C@H](c3ccccc3)[C@H](c3ccccc3)OC(=O)[C@H]1[C@@H]2C(=O)N1CCc2cc(OC)c(OC)cc2C1",
    "z-score": "-1.07 (inactive)"
  },
  {
    "compound": "O=C1OCCC/C=C\\[C@H]2OC34C=CCN(Cc5ccccc5)C(=O)[C@H]3N(CCCCCO)C(=O)[C@@H]4C12 (some centres undefined)",
    "z-score": "0.255 (inactive)"
  }
]

###

Target: NADPH oxidase 4 (Homo sapiens)
Experiment: NOX4-dependent H2O2 signal modulators, primary screen, NOX inhibitor project, cell-based, HEK293-NOX4, tetracycline-induced, Amplex Red fluorescence (AID 1160)
Conditions: 45 min, higher = more signal, called active from +8 up or from −8 down
Documented z-score across a set of molecules
recordedMetric: z-score

[
  {
    "molecule": "COCCCN1C(=O)[C@@]2(Cc3ccccc31)c1ccccc1C(=O)N(Cc1ccccc1OC)[C@H]2c1ccc(CO)cc1",
    "testedSystem": "NADPH oxidase 4 (Homo sapiens)",
    "valueMeasured": 0.545
  },
  {
    "molecule": "CC(C)C[C@@H]1NC(=O)[C@@H]2C[C@H](C(=O)NCCCC[N+](C)(C)C)[C@H](c3ccc(O)cc3)N2C1=O",
    "testedSystem": "NADPH oxidase 4 (Homo sapiens)",
    "valueMeasured": -1.4
  },
  {
    "molecule": "COc1cc(OC)c(C(O)C2C=CC3C(=O)N(c4ccccc4)C(=O)C3N2Nc2ccccc2F)cc1Br (stereo not drawn)",
    "testedSystem": "NADPH oxidase 4 (Homo sapiens)",
    "valueMeasured": -4.43
  },
  {
    "molecule": "NC(=O)NCC#Cc1ccc2c(c1)[C@]1(C(=O)N2)[C@H](C(=O)N2CCCCCCC2)[C@H]2C(=O)O[C@H](c3ccccc3)[C@H](c3ccccc3)N2[C@@H]1c1ccc(O)cc1",
    "testedSystem": "NADPH oxidase 4 (Homo sapiens)",
    "valueMeasured": 0.541
  },
  {
    "molecule": "COc1cc2c(cc1O)C(c1ccc(CN3CCCC3)cc1)N(Cc1ccc([N+](=O)[O-])o1)CC2 (stereo not drawn)",
    "testedSystem": "NADPH oxidase 4 (Homo sapiens)",
    "valueMeasured": -2.56
  },
  {
    "molecule": "C=CCN1C(=O)[C@]2(O[C@H](CCO)[C@@H]([Si](C)(C)c3ccc(OC)cc3)[C@@H]2C)c2ccccc21",
    "testedSystem": "NADPH oxidase 4 (Homo sapiens)",
    "valueMeasured": -0.0158
  },
  {
    "molecule": "C=CC(CO)NC(=O)OCC1c2ccccc2-c2ccccc21 (stereo not drawn)",
    "testedSystem": "NADPH oxidase 4 (Homo sapiens)",
    "valueMeasured": 0.0866
  },
  {
    "molecule": "CC(C)CNC(=O)[C@@H]1c2ccccc2C(=O)N(CC23CC4CC(CC(C4)C2)C3)[C@H]1c1ccc(CO)cc1",
    "testedSystem": "NADPH oxidase 4 (Homo sapiens)",
    "valueMeasured": -0.616
  }
]
